For each of the compounds below, state its inhibition at 1 µM.
assayedSystem: UniProt P37288
Sequence (P37288 whole entry): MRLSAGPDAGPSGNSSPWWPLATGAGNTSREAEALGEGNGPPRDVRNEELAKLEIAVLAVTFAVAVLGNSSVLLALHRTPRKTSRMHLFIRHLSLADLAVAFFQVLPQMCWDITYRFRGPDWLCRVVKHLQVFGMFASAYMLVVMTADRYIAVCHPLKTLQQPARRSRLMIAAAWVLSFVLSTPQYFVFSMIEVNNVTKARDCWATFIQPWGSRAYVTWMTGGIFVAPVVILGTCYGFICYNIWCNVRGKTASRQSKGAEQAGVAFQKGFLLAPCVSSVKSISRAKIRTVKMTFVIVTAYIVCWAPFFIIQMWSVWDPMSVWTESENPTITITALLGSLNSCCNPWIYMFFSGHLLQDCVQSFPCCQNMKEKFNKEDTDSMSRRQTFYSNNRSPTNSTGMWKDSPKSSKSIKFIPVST
protocolDetails: V1a binding assay (3H-AVP displacement, HEK-293 membranes)
Set-up: expressed in transfected cells; host or cells: HEK-293 (membranes)
cond: 1.0 μM compound; read-out: V1a@1.0, % Inh
Method: V1a, V1b or V2 Binding Assay Receptor binding studies were performed using recombinant human V1a, V1b or V2 receptors. Cellular membranes were harvested from HEK-293 cells transfected to express either the V1a, V1b or V2 receptors. Compounds were evaluated for their ability to displace ^3H-arginine vasopressin (^3H-AVP; specific activity 40-87 Ci/mmol; NEN Life Sciences, Boston, Mass.). […] Non-specific binding was determined using 1.25 μM arginine vasopressin (AVP; Peninsula Labs, Belmont, Calif.). […]
Record the result as a number with its unit.

Asked: Quick one: inhibition at 1 µM of CCc1ccc(CCNC(=S)N2CCC(n3c(=O)[nH]c4ccccc43)CC2)cc1 ?
Given back: 31%

Asked: Quick one: inhibition at 1 µM of O=C(O)CCn1c(=O)n(C2CCN(C(=S)NC(c3ccccc3)c3ccccc3)CC2)c2ccccc21 ?
Given back: 17%

Asked: Quick one: inhibition at 1 µM of NC(=O)C(Cc1ccccc1)NC(=S)N1CCC(n2c(=O)[nH]c3ccccc32)CC1 (centres unmarked) ?
Given back: 45%

Asked: Quick one: inhibition at 1 µM of O=c1n(Cc2ccccc2)c2ccccc2n1C1CCN(C(=S)NCCc2ccc(Cl)cc2)CC1 ?
Given back: 17%

Asked: Quick one: inhibition at 1 µM of CC(C)c1ccccc1NC(=S)N1CCC(n2c(=O)n(CCCN3CCCCC3)c3ccccc32)CC1 ?
Given back: 66%

Asked: Quick one: inhibition at 1 µM of O=c1[nH]c2ccccc2n1C1CCN(C(=S)NCCc2ccc([N+](=O)[O-])cc2)CC1 ?
Given back: 19%

Asked: Quick one: inhibition at 1 µM of O=c1[nH]c2ccccc2n1C1CCN(C(=S)NC2c3ccccc3-c3ccccc32)CC1 ?
Given back: 33%

Asked: Quick one: inhibition at 1 µM of O=c1n(CCCN2CCCCC2)c2ccccc2n1C1CCN(C(=S)NCc2ccco2)CC1 ?
Given back: 55%

---

assayedSystem: UniProt:P47901
Sequence (P47901 1-424): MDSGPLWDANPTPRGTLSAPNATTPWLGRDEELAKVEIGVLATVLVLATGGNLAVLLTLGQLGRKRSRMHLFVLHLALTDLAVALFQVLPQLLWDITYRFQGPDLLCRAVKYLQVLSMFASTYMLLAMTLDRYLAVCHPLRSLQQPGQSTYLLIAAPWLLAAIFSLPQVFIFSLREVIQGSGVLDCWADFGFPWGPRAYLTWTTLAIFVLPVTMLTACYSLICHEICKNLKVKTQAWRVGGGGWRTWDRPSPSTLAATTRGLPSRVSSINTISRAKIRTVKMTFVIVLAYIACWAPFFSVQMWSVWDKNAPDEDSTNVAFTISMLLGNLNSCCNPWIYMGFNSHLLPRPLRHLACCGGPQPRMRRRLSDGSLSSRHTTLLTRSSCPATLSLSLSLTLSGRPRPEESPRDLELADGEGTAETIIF
protocolDetails: V1b binding assay (3H-AVP displacement, HEK-293 membranes)
Design: expressed in transfected cells; host or cells: HEK-293 (membranes)
cond: 1.0 μM compound; read-out: V1b@1.0, % Inh
For each of the molecules below, state its inhibition at 1 µM.
// note: answer is a bare numeric in %

Asked: Quick one: inhibition at 1 µM of O=c1n(CCCC2CCCCC2)c2ccccc2n1C1CCN(C(=S)NC(c2ccccc2)c2ccccc2)CC1 [Compound 134] ?
Given back: 37

Asked: Quick one: inhibition at 1 µM of CC(C)c1ccccc1NC(=O)N1CCC(n2c(=O)n(CCCN3CCCCC3)c3ccccc32)CC1 [Compound 138] ?
Given back: 21

Asked: Quick one: inhibition at 1 µM of CC(C)(NC(=S)N1CCC(n2c(=O)n(CCCN3CCCCC3)c3ccccc32)CC1)c1ccccc1 [Compound 173] ?
Given back: 43

Asked: Quick one: inhibition at 1 µM of O=C(NC(c1ccccc1)(c1ccccc1)c1ccccc1)N1CCC(n2c(=O)n(CCCN3CCCCC3)c3ccccc32)CC1 [Compound 120] ?
Given back: 25

Asked: Quick one: inhibition at 1 µM of O=C(NCc1ccccc1F)N1CCC(n2c(=O)n(CCCN3CCCC3)c3ccccc32)CC1 [Compound 89] ?
Given back: 10

Asked: Quick one: inhibition at 1 µM of CC(CN1CCCCC1)Cn1c(=O)n(C2CCN(C(=S)NC(c3ccccc3)c3ccccc3)CC2)c2ccccc21 (stereo not drawn) [Compound 146] ?
Given back: 33

Asked: Quick one: inhibition at 1 µM of O=c1n(CCCN2CCCCC2)c2ccccc2n1C1CCN(C(=S)N[C@]23C[C@H]4C[C@H](C[C@H](C4)C2)C3)CC1 [Compound 129] ?
Given back: 53

Asked: Quick one: inhibition at 1 µM of CN1CCCC1CCn1c(=O)n(C2CCN(C(=S)NC(c3ccccc3)c3ccccc3)CC2)c2ccccc21 (stereo not drawn) [Compound 93] ?
Given back: 48

Asked: Quick one: inhibition at 1 µM of CC(CN1CCCC1)Cn1c(=O)n(C2CCN(C(=O)NC(c3ccccc3)c3ccccc3)CC2)c2ccccc21 (stereo not drawn) [Compound 149] ?
Given back: 44

Asked: Quick one: inhibition at 1 µM of O=c1n(CCCN2CCCCC2)c2ccccc2n1C1CCN(C(=S)NCC2CCCO2)CC1 (stereo not drawn) [Compound 159] ?
Given back: 10

Asked: Quick one: inhibition at 1 µM of CCCC1CCN(CCCn2c(=O)n(C3CCN(C(=S)NC(c4ccccc4)c4ccccc4)CC3)c3ccccc32)CC1 [Compound 122] ?
Given back: 70

Asked: Quick one: inhibition at 1 µM of O=c1n(CCCO)c2ccccc2n1C1CCN(C(=S)NC(c2ccccc2)c2ccccc2)CC1 [Compound 108] ?
Given back: 37

Asked: Quick one: inhibition at 1 µM of CC1CCN(CCCn2c(=O)n(C3CCN(C(=O)NC(c4ccccc4)c4ccccc4)CC3)c3ccccc32)CC1 [Compound 99] ?
Given back: 46

Asked: Quick one: inhibition at 1 µM of O=c1n(CCCN2CCC2)c2ccccc2n1C1CCN(C(=S)NC(c2ccccc2)c2ccccc2)CC1 [Compound 140] ?
Given back: 28

Asked: Quick one: inhibition at 1 µM of CCN(CC)CCn1c(=O)n(C2CCN(C(=S)NCc3ccccc3-c3ccccc3)CC2)c2ccccc21 [Compound 90] ?
Given back: 27
